# credit: patent US20250122188A1

Would you mind telling me the reported EC50 of each entry?
Test system: eIF2B mutant B5 R113H
Test: ATF4-Luc assay, VWMD eIF2B mutant HEK293T ATF4-Fluc cells, B5 R113H
Assay type: cell-based
Settings: Homo sapiens, HEK-293T

The cases that follow already have their EC50 on record.
[[record]]
smiles_notation = "O=C(COc1ccc(Cl)c(F)c1)NC12CCC(NC(=O)COc3ccc(Cl)c(F)c3)(CC1)[C@H](O)C2"
tested_on = "eIF2B mutant B5 R113H"
readout_type = "EC50"
measurement = "< 0.01 µM"

[[record]]
smiles_notation = "Cc1noc(COCC(=O)NC23CC(NC(=O)COc4ccc(Cl)c(F)c4)(C2)C3)n1"
tested_on = "eIF2B mutant B5 R113H"
readout_type = "EC50"
measurement = "> 2 µM"

[[record]]
smiles_notation = "O=C(COc1ccc(Cl)cc1)NC12CC(NC(=O)COc3ccc(Cl)cc3)(C1)C2"
tested_on = "eIF2B mutant B5 R113H"
readout_type = "EC50"
measurement = "< 0.01 µM"


--- query ---
Request: Which EC50 value belongs to `O=C(COc1ccc(C(F)(F)F)nc1)NC12CC(NC(=O)COc3ccc(Cl)c(F)c3)(C1)C2` ?
Result: 0.01 to 0.05 µM

----------
Tested on: eIF2B mutant B3 I346T
Experiment: ATF4-Luc assay, VWMD eIF2B mutant HEK293T ATF4-Fluc cells, B3 I346T
Format: cell-based
Conditions: Homo sapiens, HEK-293T
readout-type: EC50

[[record]]
smiles_notation = "O=C(COc1ccc(Cl)c(F)c1)NC12CCC(NC(=O)COc3ccc(Cl)c(F)c3)(CC1)[C@H](O)C2"
readout_type = "EC50"
measurement = "< 0.01 µM"


For the 3 compounds below, give their EC50 values.
1. Cc1noc(COCC(=O)NC23CC(NC(=O)COc4ccc(Cl)c(F)c4)(C2)C3)n1
2. O=C(COc1ccc(C(F)(F)F)nc1)NC12CC(NC(=O)COc3ccc(Cl)c(F)c3)(C1)C2
3. O=C(COc1ccc(Cl)cc1)NC12CC(NC(=O)COc3ccc(Cl)cc3)(C1)C2

Result:
["> 2 µM", "< 0.01 µM", "< 0.01 µM"]

----------
Test system: ATF4 luciferase reporter in HEK293T cells
Assay: ATF4-Luc assay, HEK293T cells carrying the ATF4 luciferase reporter (in vitro model of VWMD)
Assay type: cell-based
Conditions: Homo sapiens, HEK-293T, 7 h, read-out: ATF4-Luc EC50
pEC50: −log10 of the molar value.
readout-type: pEC50

[[record]]
smiles_notation = "O=C(COc1ccc(Cl)c(F)c1)NC12CC(NC(=O)Oc3ccc(Cl)cc3)(C1)C2"
tested_on = "ATF4 luciferase reporter in HEK293T cells"
measurement = "3.30 to 6.60"


--- query ---
Request: Which pEC50 value belongs to `Cc1ccc(OC(=O)NC23CC(NC(=O)COc4ccc(Cl)c(F)c4)(C2)C3)cc1` ?
Result: 3.30 to 6.60

----------
Tested on: eIF2B mutant B3 H341Q
Test: ATF4-Luc assay, VWMD eIF2B mutant HEK293T ATF4-Fluc cells, B3 H341Q
Format: cell-based
Conditions: Homo sapiens, HEK-293T
pEC50: −log10 of the molar value.
Would you mind telling me the reported pEC50 of each entry?

[[record]]
smiles_notation = "O=C(COc1ccc(Cl)c(F)c1)NC12CCC(NC(=O)COc3ccc(Cl)c(F)c3)(CC1)[C@H](O)C2"
measurement = "> 8.00"

[[record]]
smiles_notation = "O=C(COc1ccc(Cl)cc1)NC12CC(NC(=O)COc3ccc(Cl)cc3)(C1)C2"
measurement = "> 8.00"

[[record]]
smiles_notation = "Cc1noc(COCC(=O)NC23CC(NC(=O)COc4ccc(Cl)c(F)c4)(C2)C3)n1"
measurement = "< 5.70"


--- query ---
Request: Which pEC50 value belongs to `O=C(COc1ccc(C(F)(F)F)nc1)NC12CC(NC(=O)COc3ccc(Cl)c(F)c3)(C1)C2` ?
Result: 7.30 to 8.00
